biological target: CYP2A6 (Homo sapiens, UniProt P11509); construct: tissue Cypex Ltd. (U.K.); host or cells: pooled human liver microsomes; assay: Inhibition of CYP2A6 (coumarin 7-hydroxylation) by CK in HLMs; assay type: in vitro ADME; details: HLMs, coumarin 5 μM, CK 10–100 μM
Sequence (P11509 whole entry): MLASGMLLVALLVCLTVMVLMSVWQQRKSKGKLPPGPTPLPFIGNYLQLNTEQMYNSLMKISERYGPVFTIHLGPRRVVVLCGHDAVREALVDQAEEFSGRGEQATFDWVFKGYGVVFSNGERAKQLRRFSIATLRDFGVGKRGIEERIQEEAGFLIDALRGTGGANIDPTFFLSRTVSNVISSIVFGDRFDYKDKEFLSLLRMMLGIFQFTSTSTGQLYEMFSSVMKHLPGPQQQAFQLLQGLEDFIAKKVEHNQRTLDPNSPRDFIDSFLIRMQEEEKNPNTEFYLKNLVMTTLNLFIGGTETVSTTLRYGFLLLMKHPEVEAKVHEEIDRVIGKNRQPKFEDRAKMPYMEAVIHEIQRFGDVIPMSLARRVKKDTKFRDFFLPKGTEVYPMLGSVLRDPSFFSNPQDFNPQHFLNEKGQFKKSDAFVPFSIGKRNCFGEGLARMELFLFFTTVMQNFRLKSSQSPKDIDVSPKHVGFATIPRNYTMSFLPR
resultType: IC50

State IC50 on CYP2A6 (Homo sapiens, UniProt P11509). Entry: CC(C)=CCC[C@](C)(OC1O[C@H](CO)[C@@H](O)[C@H](O)[C@H]1O)[C@H]1CC[C@]2(C)[C@@H]1[C@H](O)C[C@@H]1[C@@]3(C)CC[C@H](O)C(C)(C)[C@@H]3CC[C@]12C (stereo partly shown)
> 100 µM
